Tested on: gene editing with Cas9
Experiment: Screen of 322 new SSAP proteins, gene editing activity with Cas9 (Table 5)
Assay type: cell-based
Details: normalized
Parameter: Cas9 with SSAP activity (normalized)
I only need the number, thanks.

Entry SSAP_206: SEQ ID NO: 375; Actinopolyspora xinjiangensis (protein, listed as Actinopolyspora xinjiangensis) TGQTIGTAVAKKDDENPSAIIATNRADLARVMPSHVRTDSWVRIAQGIVRRDKNLAHAARQSPGTLMVALMEAARLGLEPGTEQYYLTPRKNKGKPEVLGIPGYQGLIELMYRSGAVSSVVVETVRENDTFQWAPGRMERPEHEADWFAINGERGQLRGVYAYAIMSNGATSKVVVLNRNDIARARDSAQGADSEHSPWKNHEEAMWLKTAARRLAKWVPTSTEDRRIVQGVAERSDQPTEAPLDLTDEPDTDQPIEGELVDEEATQ has what Cas9 with SSAP activity (normalized)?
1.806
